Test system: INS-1E
assaySummary: Induction of glucose-stimulated insulin release from rat INS-1E cells at 200 uM after 1 hr by coated charcoal immunoassay in presence of up to 4 mM glucose
Format: functional, cell-based
Calls of active or inactive are those of the source. The calls are words filed in the database; no cut-off is given here.
reportedProperty: Activity

> print(dat)
                                   compound  reportedproperty  result
1  CCCCNC(=O)NS(=O)(=O)c1ccc(OCC(CO[N+](=O)[O-])O[N+](=O)[O-])cc1 (stereo not given)          Activity  Active
2  CCCCNC(=O)NS(=O)(=O)c1ccc(OCc2no[n+]([O-])c2-c2ccccc2)cc1          Activity  Active
3  CCCCNC(=O)NS(=O)(=O)c1ccc(OCc2no[n+]([O-])c2C#N)cc1          Activity  Active
4  CCCCNC(=O)NS(=O)(=O)c1ccc(C)cc1 [TOLBUTAMIDE]          Activity  Active
5  CCCCNC(=O)NS(=O)(=O)c1ccc(Oc2no[n+]([O-])c2S(=O)(=O)c2ccccc2)cc1          Activity  Active
